// provenance: PubChem BioAssay (NCI)

Tested on: MDA-MB-468 breast
MEASUREMENT PROTOCOL: NCI-60 one-dose screen, 48 h
CONDITION CONTEXT: 10 µM unless noted
Compounds without any hit were thinned out: in the full panel of roughly 83,000, 20% have a hit. Calls of active or inactive are those of the source. Rule for the calls: active = growth percent below 10; inactive = the rest.
Please reply with one of these outcomes: true (1) = active, false (0) = inactive

Solved cases (10 shown):
OC(c1ccccn1)C(O)c1ccccn1 (stereo not given) : false (0)
C=C(C=O)[C@@H]1CC[C@]2(C(=O)O)CC[C@]3(C)C(CC[C@@H]4[C@@](C)(CCC#N)[C@H](C(=C)C=O)CC[C@]43C)[C@@H]12 (stereo not given in full) : false (0)
Cc1ccc(/C=C/C(=O)c2ccc(-n3cc(CN4CCN(c5cc6c(cc5F)c(=O)c(C(=O)O)cn6C5CC5)CC4)nn3)cc2)cc1 : false (0)
O=C(CSc1nnc(-c2cnccn2)n1-c1ccccc1)c1ccc(Cl)cc1 : false (0)
CCN1C(=O)/C(=c2\sc3n(c2=O)C2C(NN=3)N(CC)C(=S)N2CC)c2ccccc21 (stereo not given) : false (0)
O=C(/C(Cl)=N/O)c1ccc(-c2ccccc2)cc1 : false (0)
CSc1nc2c(c(=O)n1C)N=C1c3ccccc3C(=O)C1C(c1ccccc1)N2 (stereo not given) : false (0)
OC(CSc1ccccc1)CN1CCN(c2cccc(Cl)c2)CC1 (stereo not given) : false (0)
Cn1ncc2c(Sc3ccc(Cl)cc3)ncnc21 : false (0)
N#CC1C(=N)Cc2ccccc2-c2ccccc21 (stereo not given) : true (1)

query: I would be grateful if you could indicate the recorded call for `CCOC(=O)CC/C(C)=N\Nc1ccc([N+](=O)[O-])cc1` .
result: false (0)

query: How was Nc1cc2c(cc1Br)-c1c(C(=O)O)cccc1C2O (stereo not given) classified in this test?
result: false (0)

query: # lookup: test call for `c1ccc2sc(SCCCn3ccnc3)nc2c1`
result: false (0)

query: Look up the recorded call for `COc1ccc(/C=C/C(=O)c2ccc(NC(=O)CSc3nnc(-c4cc(-c5ccccc5)nc5ccccc45)n3-c3ccccc3)cc2)cc1` in this test.
result: false (0)

query: In this assay, the call recorded for `O=S(=O)(N=C1C(Cl)=C(Cl)C(=NS(=O)(=O)c2ccccc2)C(Cl)=C1Cl)c1ccccc1` was what?
result: false (0)

query: I would be grateful if you could indicate the recorded call for `NC(=O)N/N=C/c1ccc(Br)o1` .
result: false (0)

* * *

System: MDA-MB-468 breast
MEASUREMENT PROTOCOL: NCI-60 one-dose screen, 48 h
CONDITION CONTEXT: 10 µM unless noted
Compounds without any hit were thinned out: in the full panel of roughly 83,000, 20% have a hit. The source made the active and inactive calls. How the source made its calls: active means growth percent below 10; inactive means the rest.
Return exactly one item of 1 = active, -1 = inactive

The following compounds have reported results that may help.
CN(C)CCn1c2ccc(Br)cc2c2nc3ccccc3nc21 : -1
Nc1ccccc1NC(=O)c1ccc(CN2CCC/C(=C\c3ccccn3)C2=O)cc1 : 1
CN(C)CCCOc1c2ccc(Cl)cc2nc2c1oc1ccccc12 : 1

query: What outcome does the record of this test show for `CN1CCN(CC#CCn2c3c(c4ccccc42)C[C@]2(C)[C@H]4CC[C@@H]5[C@H]6[C@H]7OC(=O)[C@@]6(CCC7(C)C)CC[C@@]5(C)[C@]4(C)CC[C@H]2C3(C)C)CC1` ?
result: -1

query: I would be grateful if you could indicate the recorded call for `CC(=O)c1c(C)nc(-c2cc(C)cc(Cl)c2)nc1-c1cccc(Oc2ccccc2)c1` .
result: -1

query: Look up the recorded call for `CNc1ccc(Br)cc1-c1n[nH]c(=O)[nH]c1=O` in this test.
result: -1

query: How was `COc1cc(/C=N/NC(=O)Cn2c(C(C)C)nc3ccccc32)ccc1O` classified in this test?
result: -1

query: Dear all, I need the recorded test outcome for `Clc1ccc(Cn2cc(-c3nc4ccc(Br)nc4n3Cc3ccc(Cl)cc3)c3cccnc32)cc1` , thank you.
result: -1

query: Would you mind telling me which call this test gave `O=C(Nc1nccs1)c1noc2ccccc12` ?
result: -1

* * *

Test system: MDA-MB-468 breast
MEASUREMENT PROTOCOL: NCI-60 one-dose screen, 48 h (100 = growth as untreated, 0 = no growth, -100 = all killed)
CONDITION CONTEXT: 10 µM unless noted
Compounds without any hit were thinned out: in the full panel of roughly 83,000, 20% have a hit.
Threshold check on growth: strictly below 70% is rule met; on or above 70% is rule not met.

Completed entries (count: 7):
COc1cc(C(=O)Nc2cc(OC)c3ccn(C)c3c2)cc2c1C[C@]1(C)CC[C@@H](O)C(C)(C)[C@H]1O2 : rule met
O=C(NC1CCN(Cc2ccccc2)CC1)c1cc(-c2ccncc2)nc2ccc(Cl)cc12 : rule met
C/C(=N\NC(=O)Nc1ccccc1)c1nnn(-c2ccc([N+](=O)[O-])cc2)c1C : rule not met
CCC(O)CC(CC)CO (stereo not drawn) : rule not met
CCc1ncnc2c1ccn2C(C)c1ccc(OC)c(F)c1 (stereo not drawn) : rule met
Cc1ccc(S(=O)(=O)c2nc(-c3ccccc3)oc2Sc2nc3ccccc3s2)cc1 : rule met
CCN(CC)c1ccc2c(c1)Oc1nc(N)c(C#N)c(N)c1C2Sc1ccc(OC)cc1 (stereo not drawn) : rule met

query: Consider the compound `COc1ccc(/C=C/C(=O)c2ccc(OC)c(OC)c2)cc1O` . Is its growth strictly less than 70%?
result: rule met

* * *

System: LOX IMVI melanoma
MEASUREMENT PROTOCOL: NCI-60 one-dose screen, 48 h
CONDITION CONTEXT: 10 µM
About 83,000 compounds went through this panel and 20% of them were active in at least one assay; those are over-represented in the sample as a whole. The source made the active and inactive calls. Rule for the calls: active = growth percent below 10; inactive = the rest.
Just give me one of these, please: T = active, F = inactive

Example entries begin here.
COc1ccc2[nH]cc(-c3nc(N)nnc3-c3cn(C)c4ncc(Br)cc34)c2c1 : F
O=C(CN1CCN(c2ncnc3c2cnn3-c2ccccc2)CC1)Nc1ccc(Br)cc1 : F

query: Test call, this compound: `O=C(c1ccc(Cl)cc1)C(c1c[nH]c2ccccc12)c1c[nH]c2ccccc12`
result: T

query: Query: recorded result category for `Fc1ccc(/C=C/c2nc3ccccc3n3c(-c4ccc(Cl)cc4)nnc23)cc1` in this test
result: T

* * *

System: MDA-MB-468 breast
MEASUREMENT PROTOCOL: NCI-60 one-dose screen, 48 h
CONDITION CONTEXT: 10 µM unless noted
This is part of a sample that, as a whole, favours compounds with a hit. Of some 83,000 tested, about 20% had one in any assay. Active and inactive are the calls of the source. How the source made its calls: active means growth percent below 10; inactive means the rest.
Use one of these outcomes when replying: label 1 = active, label 0 = inactive

O=C(O)CCCc1cnc2c3sccc3nc(SCc3c(Cl)cccc3Cl)n12 : label 0

query: Hi team, can someone confirm the assay call for `CCn1cnc(C[C@H](NC(=O)[C@H](CCCCNC(=O)Nc2cc(C(F)(F)F)cc(C(F)(F)F)c2)NC(=O)Nc2cc(C(F)(F)F)cc(C(F)(F)F)c2)C(=O)OC)c1` ?
result: label 1

query: Dear colleague, could you share the recorded outcome for `COc1ccc2c(=O)c(OC)c(-c3cc(OC)c(OC)c(OC)c3)oc2c1` when you have a moment?
result: label 0

query: Name the outcome recorded for `Cc1ccc(S(=O)(=O)Nc2cccc(Cn3c(=O)[nH]c4ccc(Oc5ncccn5)cc4c3=O)c2)cc1` in the assay.
result: label 0

* * *

System: MDA-MB-468 breast
MEASUREMENT PROTOCOL: NCI-60 one-dose screen, 48 h
CONDITION CONTEXT: 10 µM unless noted
The panel holds about 83,000 compounds, 20% with a hit somewhere; the sample as a whole holds those more often. Calls of active or inactive are those of the source. The calls were made as follows: active = growth percent below 10; inactive = the rest.
Form entry, call: pick from 1.0 (active), 0.0 (inactive)

Solved entries:
CC1(C)CC[C@]2(C(=O)O)CC[C@]3(C)C(=CC[C@@H]4[C@@]5(C)C/C(=C/c6ccco6)C(=O)C(C)(C)[C@@H]5CC[C@]43C)[C@@H]2C1 : 1.0
NNC(=S)N1N=C(c2cc3ccccc3o2)CC1c1c[nH]c2ccccc12 (stereo unspecified) : 0.0
Nc1nc(N)c2cc(Sc3ccc(Cl)cc3)ccc2n1 : 0.0
COc1cc(CN2CCC(N3CCCC3=O)c3ccccc32)cc(OC)c1OC (stereo unspecified) : 0.0
CC/C=C\C[C@H]1C/C=C2/C(=O)C(Cl)=C[C@@H]2C/C=C\CCCC(=O)O1 : 1.0
CC[C@H](C)[C@@H]1NC(=O)[C@H](Cc2ccc(O)cc2)N(C)C(=O)[C@H](Cc2ccccc2)NC(=O)CN(C)C(=O)[C@@H]2CCCN2C(=O)[C@@H](Cc2ccccc2)N(C)C(=O)[C@H](CC(C)C)NC1=O : 1.0
Cc1ccc(NCCN(C)C)c2c(=O)c3ccccc3sc12 : 0.0
Cc1nc2sc(C(=O)Nc3cccc4ccccc34)c(N)c2cc1C(C)O (stereo unspecified) : 0.0

query: Hi, do you know how `C#Cc1nc(C2=C(C)/C(=N/OCc3ccccc3)CC2)cs1` came out in this test?
result: 0.0

query: What did this assay record as the result for `c1ccc(-c2nc(N3CCNCC3)c3oc(-c4ccccc4)nc3n2)cc1` ?
result: 1.0

query: Which outcome was entered for the compound `COc1ccccc1/C=C1\COc2ccc(O)cc2C1=O` in this test?
result: 0.0

query: For CCN1C(=O)N(c2ccccc2)C2Nn3c(s/c(=C4\C(=O)N(C(C)C)c5ccccc54)c3=O)=NC21 (stereo unspecified) , which call appears in the assay record?
result: 0.0

query: Would you mind telling me which call this test gave `Cc1cccc(NC(=O)CSc2nc3ccccc3[nH]2)c1` ?
result: 0.0
